test system: Noggin (protein binding on small-molecule microarray); assay: small molecules binding Noggin protein – biochemical, 635/667 nm fluorescence, primary screen (AID 1095); conditions: 635 nm fluorescence, higher = more signal;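 also: score merges 667 nm feature fluorescence with signal to noise over triplicate slides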
// values below are reported composite z-score
Give your answer as a number; write no unit.

COCCOC(=O)N1C(=O)[C@@]2(c3cc(C#CCCO)ccc31)[C@H](c1ccc(OCCO)cc1)N1[C@H](c3ccccc3)[C@H](c3ccccc3)OC(=O)[C@H]1[C@@H]2C(N)=O = 0.626
CC(C)N1CC=CC23O[C@@H]4C=CCOC(=O)[C@@H]4[C@H]2C(=O)N(CCCCCO)[C@@H]3C1=O (stereo partly drawn) = -0.325

Now for the compound whose composite z-score we want.
Ask | Tell me the measured composite z-score of O=C1O[C@@H](c2ccccc2)[C@@H](c2ccccc2)N2[C@@H](c3ccccc3OCCO)[C@]3(C(=O)Nc4ccc(C#CC5(O)CCCCCC5)cc43)[C@@H](C(=O)N3CCN(c4ncccn4)CC3)[C@H]12 , please.
Reply | 0.662

---

assay: JC-1 mitochondrial signal, unstimulated HepG2 cells – cell-based, JC-1 fluorescence, 24 h, 100 nL compound, profiling panel (AID 1167); settings: HepG2 mitochondrial potential, higher = more signal; also: test concentration not given here
measurement name: z-score
Give your answer as a number; write no unit.

COCCOC(=O)N1C(=O)[C@@]2(c3ccccc31)[C@H](c1ccc(OCCO)cc1)N1[C@H](c3ccccc3)[C@H](c3ccccc3)OC(=O)[C@H]1[C@@H]2C(=O)N1CCc2cc(OC)c(OC)cc2C1 = 0.39

Ask | Tell me the measured z-score of COCCOC(=O)N1C(=O)[C@@]2(c3cc(C#CC4(O)CCCCCC4)ccc31)[C@H](C(=O)Nc1nc3ccccc3s1)[C@H]1C(=O)O[C@H](c3ccccc3)[C@H](c3ccccc3)N1[C@@H]2c1ccccc1OCCO , please.
Reply | -3.05

Ask | Tell me the measured z-score of C=CCC(OC(C)=O)[C@@H]1[C@@H](N(Cc2cc3ccccc3o2)C(=O)Cc2ccc(OC)cc2)c2cc(OCCCO)ccc2N1C(=O)c1ccc2ccccc2c1 (stereo partly drawn) , please.
Reply | 1.4

---

// values below are reported composite z-score
target: Albumin (Bos taurus); experiment: compounds binding labelled BSA control protein – biochemical, small-molecule microarray, Alexa647 label, 635/667 nm fluorescence, artefact control for SMM control protein annotation, profiling panel (AID 1118); conditions: BSA-A647 binding, fluorescence 635 nm, higher = more signal;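 also: score merges 667 nm emission intensity and signal-to-noise per printed compound spot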

CCOC(=O)C1=C[C@@H](C(C)C)N(S(=O)(=O)c2ccc(C)cc2)[C@H]1c1ccccc1F = 0.81
O=C1C2C=CC(C(O)C=Cc3ccc([N+](=O)[O-])cc3)N(n3cnnc3)C2C(=O)N1Cc1ccccc1 (configuration not stated) = 0.235

Now for the molecule whose composite z-score we want.
Ask | Tell me the measured composite z-score of [N-]=[N+]=Nc1ccccc1C[C@]1(C(=O)NCc2ccccc2)N=C(c2ccc(OCCCO)cc2)O[C@H]1c1ccccc1N=[N+]=[N-] , please.
Reply | 0.896

---

target: NADPH oxidase 5 (Homo sapiens) (UniProt Q96PH1); test: compounds shifting NOX5 Amplex Red fluorescence – cell-based, HEK293-NOX5, NOX inhibitor project, primary screen (AID 1161); conditions: HEK293-NOX5, ionomycin, 45 min, higher = more signal
Sequence (Q96PH1 whole entry, looked up): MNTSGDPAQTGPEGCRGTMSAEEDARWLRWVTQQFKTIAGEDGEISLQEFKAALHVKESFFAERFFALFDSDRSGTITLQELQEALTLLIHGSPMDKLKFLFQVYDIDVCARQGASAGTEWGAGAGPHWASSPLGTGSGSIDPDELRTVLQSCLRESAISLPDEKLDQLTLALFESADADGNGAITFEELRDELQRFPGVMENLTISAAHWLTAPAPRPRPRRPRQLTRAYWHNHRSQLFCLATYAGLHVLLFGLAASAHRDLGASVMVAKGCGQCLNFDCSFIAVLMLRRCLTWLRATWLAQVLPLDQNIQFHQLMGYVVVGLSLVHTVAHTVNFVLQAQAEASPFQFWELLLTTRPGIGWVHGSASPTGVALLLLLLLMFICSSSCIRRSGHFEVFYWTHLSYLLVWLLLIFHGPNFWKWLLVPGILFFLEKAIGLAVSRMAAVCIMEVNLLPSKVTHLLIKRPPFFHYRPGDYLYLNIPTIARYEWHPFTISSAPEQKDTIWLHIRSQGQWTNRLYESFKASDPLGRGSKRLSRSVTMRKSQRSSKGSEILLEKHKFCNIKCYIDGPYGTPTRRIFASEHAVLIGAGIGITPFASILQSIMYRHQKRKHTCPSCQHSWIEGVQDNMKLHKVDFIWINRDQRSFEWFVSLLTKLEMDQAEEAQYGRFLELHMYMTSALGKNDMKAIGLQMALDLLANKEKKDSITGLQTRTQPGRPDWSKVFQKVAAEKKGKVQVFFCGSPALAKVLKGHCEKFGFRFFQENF
Assign true to entries whose z-score meets or exceeds -1; assign false to the rest.

Some solved cases for reference:
C=C(CCCC)/C(=C/C[C@H](OC(C)=O)c1ccc(OCCO)cc1)c1cnc2ccccc2c1 = false
CO[C@H]1O[C@H](CO)[C@@H](OC(=O)Nc2ccc(Oc3ccccc3)cc2)[C@H](OC(=O)Nc2ccc3c(c2)OCO3)[C@@H]1OC(=O)Nc1ccc2c(c1)OCO2 = true
COC(=O)C(CC#Cc1ccc2c(c1)[C@]1(C(=O)N2)[C@H](c2ccccc2OCCO)N2[C@H](c3ccccc3)[C@H](c3ccccc3)OC(=O)[C@H]2[C@@H]1C(=O)O)C(=O)OC = true
COCCCNC(=O)[C@@]1(Sc2ccc(C)cc2)CC(=O)N(Cc2ccccc2Cl)[C@@H]1c1ccc(CO)cc1 = false

Ask | Hi, just wondering whether O=C1C2C=CC(C(O)c3cc(C(F)(F)F)cc(C(F)(F)F)c3)N(Nc3ccccc3)C2C(=O)N1c1ccccc1 (configuration not stated) shows z-score of -1 or higher.
Reply | false

Ask | Hi, just wondering whether COCCOC(=O)N1C(=O)[C@@]2(c3cc(C#Cc4ccc(OC)cc4)ccc31)[C@H](c1ccc(O)cc1)N1[C@H](c3ccccc3)[C@H](c3ccccc3)OC(=O)[C@H]1[C@@H]2C(=O)Nc1nc2ccccc2s1 shows z-score of -1 or higher.
Reply | true

Ask | Hi, just wondering whether CC[C@@H]1C=C(C(=O)O)[C@H](c2cccc3ccccc23)N1S(=O)(=O)c1ccc(C)cc1 shows z-score of -1 or higher.
Reply | true
